Measured target: Olfr31 (Mus musculus)
Construct: expressed in transfected cells; host or cells: HEK293T, co-transfected with RTP1S
Sequence (Q3KPA7 1-317): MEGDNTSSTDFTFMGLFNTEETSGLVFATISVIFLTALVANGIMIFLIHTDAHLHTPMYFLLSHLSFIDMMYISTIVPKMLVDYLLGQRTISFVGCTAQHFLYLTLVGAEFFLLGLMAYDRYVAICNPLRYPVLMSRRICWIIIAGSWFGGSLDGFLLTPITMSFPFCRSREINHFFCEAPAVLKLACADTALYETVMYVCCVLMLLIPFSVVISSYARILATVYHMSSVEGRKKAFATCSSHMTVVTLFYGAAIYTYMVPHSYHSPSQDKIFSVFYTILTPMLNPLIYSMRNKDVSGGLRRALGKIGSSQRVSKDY
Assay notes: dual-luciferase (cAMP/CREB reporter) ligand screen, Olfr31 in HEK293T cells
Format: cell-based
Condition info: chemicals tested individually, screened at 500uM (* also at 100uM)

{"Compound": "CCCCCCCC(=O)O [octanoic acid]", "Measured target": "Olfr31 (Mus musculus)", "Olfr31 response in dual-luciferase assay": "-"}
{"Compound": "CCCCC(CC)C(=O)O (stereo not drawn) [2-ethylhexanoate]", "Measured target": "Olfr31 (Mus musculus)", "Olfr31 response in dual-luciferase assay": "-"}
{"Compound": "O=C1CCCCCCCCCCCCCCCO1 [16-hexadecanolide]", "Measured target": "Olfr31 (Mus musculus)", "Olfr31 response in dual-luciferase assay": "-"}

All values here come from paper PMC4207771.
